- Test system: Arabidopsis thaliana Col-0
- assay.notes: Germination rate and phytotoxicity
- Assay type: in vivo
- condition.info: 5 µM; 5 DPS
measure: average fraction of germinated seeds
Please respond with just the number, no unit label.

See these solved cases before continuing.
Here CCCOc1cccc(-c2ccc3[nH]ccc3c2)c1 was tested on Arabidopsis thaliana Col-0, and its average fraction of germinated seeds came to 0.96

Bench note, Arabidopsis thaliana Col-0: CCOc1cccc(-c2ccc3[nH]ccc3c2)c1 , average fraction of germinated seeds reads 0.96

Continuing:
// average fraction of germinated seeds (Arabidopsis thaliana Col-0) for FC(F)(F)Oc1ccc(-c2ccc3[nH]ccc3c2)cc1 = 0.98

* * *

- Tested on: Arabidopsis thaliana Col-0
- assay.notes: Germination rate and phytotoxicity
- Type: in vivo
- condition.info: 10 µM; 10 DPS
measure: main root length
Dear colleague, please send the value followed by its unit.

Data point: FC(F)(F)Oc1ccc(-c2ccc3[nH]ccc3c2)cc1 [i-21] ; main root length = 42.21 mm

So, Fc1ccc(-c2ccc3[nH]ccc3c2)cc1 [i-20] ? Its main root length was 34.00 mm

For reference, reported main root length for CC(C)Oc1cccc(-c2ccc3[nH]ccc3c2)c1 [i-15] stands at 36.13 mm

What the record says about CC(C)c1ccc(-c2ccc3[nH]ccc3c2)cc1 [i-17] : main root length is 37.53 mm

The measured main root length associated with CCCOc1cccc(-c2ccc3[nH]ccc3c2)c1 [i-12] reads 38.66 mm

Further cases:
Looking up CCOc1cccc(-c2ccc3[nH]ccc3c2)c1 [i-9] , I see its main root length listed as 41.46 mm

// main root length lookup, molecule = Clc1ccc(-c2ccc3[nH]ccc3c2)cc1 [i-19] , result: 37.74 mm

Recorded main root length (molecule CCOc1cc(-c2ccc3[nH]ccc3c2)ccc1Cl [i-25] ): 38.15 mm

Field main root length (entry CC(C)Oc1cc(-c2ccc3[nH]ccc3c2)ccc1Cl [i-27] ) reads 40.35 mm

Given item CCCOc1ccc(-c2ccc3[nH]ccc3c2)cc1 [i-13] , the value recorded as its main root length is 39.42 mm
